# System: 233499-124-R-J3-PDC complex spheroid viability, % test/control
# procedure-details: Anticancer human tumor 233499-124-R-J3-PDC patient-derived colon adenocarcinoma cell line growth inhibition
# conditions: second compound 3.16 µM; first compound 3 µM; active compounds read low
Label yes when viability, T/C < 50%; otherwise no.

Example entries begin here.
| compound | class-name |
| --- | --- |
| NS(=O)(=O)OCC1CC(n2ccc3c(NC4CCc5ccccc54)ncnc32)CC1O (configuration not stated) + NC1CCC(NC2CC2c2ccccc2)CC1 | yes |
| CCN(c1cc(-c2ccc(CN3CCOCC3)cc2)cc(C(=O)NCc2c(C)cc(C)[nH]c2=O)c1C)C1CCOCC1 + NC1CCC(NC2CC2c2ccccc2)CC1 | no |
| O=C(C=Cc1cccc(S(=O)(=O)Nc2ccccc2)c1)NO + NC1CCC(NC2CC2c2ccccc2)CC1 | no |

Prompt: Would you kindly verify if viability, T/C of O=C(C=Cc1cccc(S(=O)(=O)Nc2ccccc2)c1)NO + NC1CC1c1ccc(-c2cccc(O)c2)cc1 is strictly less than 50%?
Completion: no

Prompt: Is it true that viability, T/C reported for COc1cc(C2c3cc4c(cc3C(OC3OC5COC(C)OC5C(O)C3O)C3COC(=O)C23)OCO4)cc(OC)c1O (configuration not stated) + NC1CC1c1ccc(-c2cccc(O)c2)cc1 is less than 50%?
Completion: yes

Prompt: Item NS(=O)(=O)OCC1CC(n2ccc3c(NC4CCc5ccccc54)ncnc32)CC1O (configuration not stated) + NC1CC1c1ccc(-c2cccc(O)c2)cc1 : viability, T/C beneath 50%, strictly?
Completion: yes

Prompt: Please state whether viability, T/C is below 50% for Nc1ccccc1NC(=O)c1ccc(CNC(=O)OCc2cccnc2)cc1 + NC1CCC(NC2CC2c2ccccc2)CC1
Completion: yes

====

# Test system: 233499-124-R-J3-PDC complex spheroid viability, % test/control
# procedure-details: Anticancer human tumor 233499-124-R-J3-PDC cell line growth inhibition;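 further: spheroids exposed to agents for one week before readout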
# conditions: second compound 0.1 µM; first compound 0.0949 µM; active compounds read low
Below, each entry is listed with its recorded viability, T/C.
# unit: % | format: bare number

Reference set, count: 3
| compound | units-of-measure | viability, T/C |
| --- | --- | --- |
| O=C(C=Cc1cccc(S(=O)(=O)Nc2ccccc2)c1)NO + NC1CC1c1ccc(-c2cccc(O)c2)cc1 | % | 118 |
| Nc1ncn(C2CC(O)C(CO)S2)c(=O)n1 (centres undefined) + NC1CC1c1ccc(-c2cccc(O)c2)cc1 | % | 51.2 |
| CCc1c2c(nc3ccc(O)cc13)-c1cc3c(c(=O)n1C2)COC(=O)[C@]3(O)CC + NC1CCC(NC2CC2c2ccccc2)CC1 | % | 19.8 |

Prompt: # input compound: Nc1ncn(C2CC(O)C(CO)S2)c(=O)n1 (centres undefined) + NC1CCC(NC2CC2c2ccccc2)CC1 ; wanted: its viability, T/C
Completion: 61.4

====

# Tested on: 233499-124-R-J3-PDC complex spheroid viability, % test/control
# procedure-details: Anticancer human tumor 233499-124-R-J3-PDC cell line growth inhibition;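 further: spheroids exposed to agents for one week before readout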
# conditions: second compound 3.16 µM; first compound 0.000949 µM; active compounds read low
Listing of entries alongside the reported viability, T/C.
Reply with just the number (in %).

Prompt: What viability, T/C value was documented for this molecule, Nc1ccn(C2OC(CO)C(O)C2(F)F)c(=O)n1 (stereo unspecified) + NC1CCC(NC2CC2c2ccccc2)CC1 ?
Completion: 51.4

Prompt: Reported viability, T/C for CCc1c2c(nc3ccc(O)cc13)-c1cc3c(c(=O)n1C2)COC(=O)[C@]3(O)CC + NC1CC1c1ccc(-c2cccc(O)c2)cc1 : what is it?
Completion: 77.6

Prompt: Look up viability, T/C for this molecule: Nc1ncn(C2CC(O)C(CO)S2)c(=O)n1 (stereo unspecified) + NC1CC1c1ccc(-c2cccc(O)c2)cc1
Completion: 81

Prompt: Query: viability, T/C; subject: Nc1ccn(C2OC(CO)C(O)C2(F)F)c(=O)n1 (stereo unspecified) + NC1CC1c1ccc(-c2cccc(O)c2)cc1
Completion: 92.3

Prompt: # input molecule: CCc1c2c(nc3ccc(O)cc13)-c1cc3c(c(=O)n1C2)COC(=O)[C@]3(O)CC + NC1CCC(NC2CC2c2ccccc2)CC1 ; wanted: its viability, T/C
Completion: 90.8

Prompt: Field request: viability, T/C | item: Nc1ncn(C2CC(O)C(CO)S2)c(=O)n1 (stereo unspecified) + NC1CCC(NC2CC2c2ccccc2)CC1
Completion: 97.4

All values here come from PubChem BioAssay AID1918930.
